Source listed as patent US5274121A.

Provide the recorded inhibition at 50 µM for the entries that follow.
- assaySystem: muscarinic receptors, NG108-15 cell membranes (m3 AChR) (Mus musculus, UniProt P32211)
- Construct: membranes from NG108-15 cells; endogenous in cells; host or cells: NG108-15 neuroblastoma x glioma hybrid cells (crude membrane fraction)
- assayProtocol: Inhibition of [3H]-NMS binding to membranes from NG108-15 cells
- assayContext: NG108-15 cells; conc. of compound = 50 μM; read-out: binding (% inhibition of 3H-NMS binding)
Field: numeric (%). Do not append units.

Recorded inhibition at 50 µM for COC(=O)CCC(=O)N(C)CC#CCN1CCCC1 [Compound 009] with muscarinic receptors, NG108-15 cell membranes (m3 AChR) (Mus musculus, UniProt P32211), please?
5

How about this compound: COc1ccc(NC(=O)N(C)CC#CCN2CCCC2)cc1 [Compound 028]
24

How about this compound: CC(=O)NCCNC(=O)CCC(=O)N(C)CC#CCN1CCCC1 [Compound 023]
6

How about this compound: CN(CC#CCN1CCCC1)C(=O)c1cccc(Cl)c1 [Compound 026]
17

How about this compound: CN(CC#CCN1CCCC1)CC1OCCO1 [Compound 029]
5

How about this compound: CN(CC#CCN1CCCC1)C(=O)CCC(=O)NCCN [Compound 019]
14

====

- Test system: NG108-15 neuroblastoma x glioma cells (m3 AChR)
- assayProtocol: Inhibition of PGE1-stimulated cAMP levels in NG108-15 cells
- Assay type: cell-based
- assayContext: NG108-15, NG108-15 cells; relative to control with no compounds added; conc. of compounds = 100 μM; read-out: cAMP Inhib
Provide the recorded inhibition at 100 µM for the entries that follow.
Field: numeric (%). Do not append units.

# get_value(readout='inhibition at 100 µM', item= CN(CC#CCN1CCCC1)C(=O)CCCCCN [Compound 039] )
14.3

How about this compound: C[N+](C)(C)CC#CCN1CCCC1=O [OXO-M, oxotremorine-M, reference compound]
64.1

How about this compound: CC(=O)NCC(=O)N(C)CC#CCN1CCCC1 [Compound 010]
14.1

How about this compound: CC(=O)NCCC(=O)N(C)CC#CCN1CCCC1 [Compound 018]
10.2

How about this compound: CN(CC#CCN1CCCC1)C(=O)CCCCN [Compound 036]
15.8

====

- assaySystem: muscarinic receptors, SK-N-SH cell membranes (m4 AChR) (Homo sapiens, UniProt P20309)
- Construct: membranes from SK-N-SH cells; endogenous in cells; host or cells: SK-N-SH human neuroblastoma cells (crude membrane fraction)
- Sequence (P20309 whole entry): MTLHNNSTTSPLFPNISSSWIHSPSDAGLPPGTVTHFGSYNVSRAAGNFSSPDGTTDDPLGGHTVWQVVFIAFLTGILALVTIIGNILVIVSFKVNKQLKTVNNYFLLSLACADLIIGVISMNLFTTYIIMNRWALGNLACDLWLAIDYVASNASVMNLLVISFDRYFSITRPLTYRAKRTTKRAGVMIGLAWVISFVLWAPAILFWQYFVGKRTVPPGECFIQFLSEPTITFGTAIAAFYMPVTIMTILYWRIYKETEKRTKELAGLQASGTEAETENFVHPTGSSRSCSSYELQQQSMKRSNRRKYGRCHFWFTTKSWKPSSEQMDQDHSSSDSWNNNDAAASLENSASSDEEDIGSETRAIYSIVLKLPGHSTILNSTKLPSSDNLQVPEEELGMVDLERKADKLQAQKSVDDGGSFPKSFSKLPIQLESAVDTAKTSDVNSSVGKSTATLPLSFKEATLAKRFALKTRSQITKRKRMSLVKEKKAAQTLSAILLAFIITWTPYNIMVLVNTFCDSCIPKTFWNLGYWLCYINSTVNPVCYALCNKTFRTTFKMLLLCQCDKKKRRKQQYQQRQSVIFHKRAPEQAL
- assayProtocol: Inhibition of [3H]-NMS binding to membranes from SK-N-SH cells
- assayContext: SK-N-SH cells; conc. of compound = 50 μM; read-out: binding (% inhibition of 3H-NMS binding)
quantityKind: inhibition at 50 µM (%)
Field: numeric (%). Do not append units.

Recorded inhibition at 50 µM for CN(CC#CCN1CCCC1)C(=O)c1cccc(Cl)c1 with muscarinic receptors, SK-N-SH cell membranes (m4 AChR) (Homo sapiens, UniProt P20309), please?
27

How about this compound: CC(=O)NCCNC(=O)CCC(=O)N(C)CC#CCN1CCCC1
6

How about this compound: CN(CC#CCN1CCCC1)C(=O)CCC(=O)NCCN
25

How about this compound: CN(CC#CCN1CCCC1)C(=O)CCC(=O)O
7

How about this compound: CN(CC#CCN1CCCC1)CC1OCCO1
19

How about this compound: CC(=O)N(C)C(C)C#CCN1CCCC1 (centres unmarked) [BM 5, reference compound]
95

How about this compound: COc1ccc(NC(=O)N(C)CC#CCN2CCCC2)cc1
61

How about this compound: C[N+](C)(C)CC#CCN1CCCC1=O [OXO-M, oxotremorine-M, reference compound]
49

How about this compound: CN(CC#CCN1CCCC1)CCC1OCCO1
20

How about this compound: COC(=O)CCC(=O)N(C)CC#CCN1CCCC1
8

How about this compound: CN(CC#CCN1CCCC1)C(=O)c1ccccc1
20

====

- assaySystem: muscarinic receptors, NG108-15 cell membranes (m3 AChR) (Mus musculus, UniProt P32211)
- Construct: membranes from NG108-15 cells; endogenous in cells; host or cells: NG108-15 neuroblastoma x glioma hybrid cells (crude membrane fraction)
- Sequence (P32211 1-479): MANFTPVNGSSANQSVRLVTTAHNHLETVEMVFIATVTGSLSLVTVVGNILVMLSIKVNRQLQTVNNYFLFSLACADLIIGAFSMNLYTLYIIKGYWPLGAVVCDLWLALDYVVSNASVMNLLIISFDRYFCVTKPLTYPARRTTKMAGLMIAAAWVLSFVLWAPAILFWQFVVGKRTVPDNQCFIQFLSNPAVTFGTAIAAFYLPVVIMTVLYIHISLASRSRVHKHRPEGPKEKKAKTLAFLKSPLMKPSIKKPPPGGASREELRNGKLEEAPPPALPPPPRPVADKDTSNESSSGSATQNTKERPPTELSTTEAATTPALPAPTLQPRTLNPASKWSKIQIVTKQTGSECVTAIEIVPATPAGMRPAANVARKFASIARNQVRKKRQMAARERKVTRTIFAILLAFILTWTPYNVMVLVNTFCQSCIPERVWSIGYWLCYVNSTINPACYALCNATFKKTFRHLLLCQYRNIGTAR
- assayProtocol: Inhibition of [3H]-NMS binding to membranes from NG108-15 cells
- assayContext: NG108-15 cells; conc. of compound = 50 μM; read-out: binding (% inhibition of 3H-NMS binding)
quantityKind: inhibition at 50 µM (%)
Field: numeric (%). Do not append units.

# get_value(readout='inhibition at 50 µM', item= CN(CC#CCN1CCCC1)C(=O)CCC(=O)O [Compound 008] )
1

How about this molecule: CN(CC#CCN1CCCC1)C(=O)c1ccccc1 [Compound 032]
7

How about this molecule: CN(CC#CCN1CCCC1)CCC1OCCO1 [Compound 031]
7

How about this molecule: CC(=O)N(C)C(C)C#CCN1CCCC1 (centres unmarked) [BM 5, reference compound]
91

How about this molecule: C[N+](C)(C)CC#CCN1CCCC1=O [OXO-M, oxotremorine-M, reference compound]
74

====

- assaySystem: muscarinic receptors, SK-N-SH cell membranes (m4 AChR) (Homo sapiens, UniProt P20309)
- Construct: membranes from SK-N-SH cells; endogenous in cells; host or cells: SK-N-SH human neuroblastoma cells (crude membrane fraction)
- assayProtocol: Inhibition of [3H]-NMS binding to membranes from SK-N-SH cells
- assayContext: SK-N-SH cells; conc. of compounds = 100 μM
Assign TRUE whenever inhibition at 100 µM does not fall below 50%; assign FALSE whenever it does.

Does the reported inhibition at 100 µM for C[N+](C)(C)CC#CCN1CCCC1=O [OXO-M, oxotremorine-M, reference compound] fall at or above the 50% mark?
TRUE

How about this molecule: CC(=O)NCCCCCC(=O)N(C)CC#CCN1CCCC1
FALSE

How about this molecule: CN(CC#CCN1CCCC1)C(=O)CCCCCN
TRUE

How about this molecule: CC(=O)NCC(=O)N(C)CC#CCN1CCCC1
FALSE

How about this molecule: CN(CC#CCN1CCCC1)C(=O)CCCCCNC(=O)OC(C)(C)C
FALSE

How about this molecule: CN(CC#CCN1CCCC1)C(=O)CCCCNC(=O)OC(C)(C)C
FALSE

How about this molecule: CN(CC#CCN1CCCC1)C(=O)CCCCCCCNC(=O)OC(C)(C)C
TRUE

How about this molecule: CC(=O)N(C)C(C)C#CCN1CCCC1 (stereo not drawn) [BM 5, reference compound]
TRUE

====

- assaySystem: muscarinic receptors, SK-N-SH cell membranes (m4 AChR) (Homo sapiens, UniProt P20309)
- Construct: membranes from SK-N-SH cells; endogenous in cells; host or cells: SK-N-SH human neuroblastoma cells (crude membrane fraction)
- assayProtocol: Inhibition of [3H]-NMS binding to membranes from SK-N-SH cells
- assayContext: SK-N-SH cells; conc. of compounds = 100 μM
Assign YES whenever inhibition at 100 µM does not fall below 30%; assign NO whenever it does.

Does the reported inhibition at 100 µM for CN(CC#CCN1CCCC1)C(=O)CCCNC(=O)CNC(=O)OC(C)(C)C fall at or above the 30% mark?
YES

How about this molecule: CN(CC#CCN1CCCC1)C(=O)CCCCCCNC(=O)OC(C)(C)C
YES

How about this molecule: CN(CC#CCN1CCCC1)C(=O)CCCNC(=O)c1ccccc1
NO

How about this molecule: CN(CC#CCN1CCCC1)C(=O)CCN
NO

How about this molecule: CN(CC#CCN1CCCC1)C(=O)CN
NO

How about this molecule: CN(CC#CCN1CCCC1)C(=O)CCCNC(=O)CCNC(=O)OC(C)(C)C
YES

How about this molecule: CC(=O)NCCCC(=O)N(C)CC#CCN1CCCC1
NO

How about this molecule: CC(=O)NCCCCCCCC(=O)N(C)CC#CCN1CCCC1
YES

How about this molecule: CN(CC#CCN1CCCC1)C(=O)CCCCCNC(=O)CCNC(=O)OC(C)(C)C
YES

How about this molecule: CN(CC#CCN1CCCC1)C(=O)CCNC(=O)OC(C)(C)C
YES
